Where these numbers come from: patent US11584755B2

biological target: hEXO1, Isoform1 (Homo sapiens (Human)); assay: Enzymatic IC50 assay, FAM-labeled DNA oligomer substrate, fluorescence intensity (EXO1); details: hEXO1 6 nM, substrate 30 nM, reaction time 60 minutes, 23° C.
Sequence (Q9UQ84 whole entry, canonical isoform): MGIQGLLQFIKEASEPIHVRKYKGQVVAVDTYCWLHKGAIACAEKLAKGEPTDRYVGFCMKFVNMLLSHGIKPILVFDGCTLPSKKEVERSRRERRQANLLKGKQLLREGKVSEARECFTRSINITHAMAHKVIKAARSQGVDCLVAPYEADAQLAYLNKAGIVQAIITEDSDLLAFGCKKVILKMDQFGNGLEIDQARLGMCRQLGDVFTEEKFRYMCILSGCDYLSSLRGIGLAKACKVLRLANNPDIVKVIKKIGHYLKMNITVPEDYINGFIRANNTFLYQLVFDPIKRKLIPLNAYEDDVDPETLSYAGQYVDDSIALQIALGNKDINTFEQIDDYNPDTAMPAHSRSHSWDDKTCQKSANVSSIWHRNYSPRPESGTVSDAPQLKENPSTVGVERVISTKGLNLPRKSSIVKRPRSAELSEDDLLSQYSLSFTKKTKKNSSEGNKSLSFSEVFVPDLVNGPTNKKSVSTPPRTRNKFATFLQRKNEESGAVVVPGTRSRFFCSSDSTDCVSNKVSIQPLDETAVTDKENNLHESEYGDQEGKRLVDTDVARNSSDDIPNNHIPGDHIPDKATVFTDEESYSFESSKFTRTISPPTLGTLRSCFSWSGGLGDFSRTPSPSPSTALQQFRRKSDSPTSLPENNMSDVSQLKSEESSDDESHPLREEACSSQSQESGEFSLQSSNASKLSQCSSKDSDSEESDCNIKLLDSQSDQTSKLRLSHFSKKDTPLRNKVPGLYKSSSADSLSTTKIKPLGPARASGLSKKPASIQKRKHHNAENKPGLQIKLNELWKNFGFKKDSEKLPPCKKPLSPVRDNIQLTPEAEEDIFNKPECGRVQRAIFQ
pIC50: −log10 of the molar value.

| molSmiles | pIC50 |
| --- | --- |
| O=C(O)c1c(O)c(=O)n(Cc2nc(-c3ccccc3)no2)c2ccsc12 | 5.65 to 6.12 |
| CS(=O)(=O)Nc1cccc(Cn2c(=O)c(O)c(C(=O)O)c3sccc32)c1 | 5.65 to 6.12 |
| O=C(O)c1c(O)c(=O)n(Cc2cnn(CCc3ccncc3)c2)c2ccsc12 | 5.00 to 5.65 |
| O=C(O)c1c(O)c(=O)n(Cc2cnc[nH]2)c2ccsc12 | 5.00 to 5.65 |
| COc1ccc(Cn2c(=O)c(O)c(C(=O)O)c3sccc32)cn1 | 5.00 to 5.65 |
| Cc1nc(Cn2c(=O)c(O)c(C(=O)O)c3sccc32)co1 | < 5.00 |
| Cc1cc(Cn2c(=O)c(O)c(C(=O)O)c3sccc32)on1 | < 5.00 |
| CNC(=O)c1cccc(Cn2c(=O)c(O)c(C(=O)O)c3sccc32)c1 | 5.00 to 5.65 |
| O=C(O)c1c(O)c(=O)n(Cc2cn(-c3ccc4c(c3)OCO4)nn2)c2ccsc12 | 6.12 to 6.60 |
| Cc1c(Cn2c(=O)c(O)c(C(=O)O)c3sccc32)cnn1C | 5.00 to 5.65 |
| O=C(O)c1c(O)c(=O)n(Cc2ccccc2[N+](=O)[O-])c2ccsc12 | 5.00 to 5.65 |
| O=C(O)c1c(O)c(=O)n(Cc2cnn(-c3cccnc3)c2)c2ccsc12 | 6.12 to 6.60 |
| O=C(O)c1c(O)c(=O)n(Cc2cnc(-c3ccnc4ccccc34)s2)c2ccsc12 | 5.65 to 6.12 |
| O=C(O)c1c(O)c(=O)n(Cc2cnn(Cc3ccncc3)c2)c2ccsc12 | 5.00 to 5.65 |
| O=C(O)c1c(O)c(=O)n(Cc2cnc3ccccc3c2)c2ccsc12 | 6.12 to 6.60 |
| Nc1ccc(Cn2c(=O)c(O)c(C(=O)O)c3sccc32)cc1 | 5.00 to 5.65 |
| CS(=O)(=O)c1ccc(-n2cc(Cn3c(=O)c(O)c(C(=O)O)c4sccc43)cn2)cc1 | 6.12 to 6.60 |
| O=C(O)c1c(O)c(=O)n(Cc2cccc(Br)c2)c2ccsc12 | 5.00 to 5.65 |

----------
target: hEXO1, Isoform1 (Homo sapiens (Human)); experiment: Enzymatic IC50 assay, FAM-labeled DNA oligomer substrate, fluorescence intensity (EXO1); details: hEXO1 6 nM, substrate 30 nM, reaction time 60 minutes, 23° C.
pIC50: −log10 of the molar value.

| molSmiles | pIC50 |
| --- | --- |
| O=C(O)c1c(O)c(=O)n(Cc2cnn(Cc3cnc4ccccn34)c2)c2ccsc12 | 5.00 to 5.65 |
| CS(=O)(=O)c1ccc(-c2ncc(Cn3c(=O)c(O)c(C(=O)O)c4sccc43)s2)cc1 | 6.12 to 6.60 |
| O=C(O)c1c(O)c(=O)n(Cc2ccc(Oc3ccccc3)cc2)c2ccsc12 | 5.00 to 5.65 |
| N#Cc1ccccc1-n1cc(Cn2c(=O)c(O)c(C(=O)O)c3sccc32)cn1 | 6.12 to 6.60 |

----------
In this section, each of the molecules is paired with its reported IC50.
biological target: hFEN1 (Homo sapiens (Human), UniProt P39748); experiment: Enzymatic IC50 assay, FAM-labeled DNA oligomer substrate, fluorescence intensity (FEN1); assay type: biochemical; settings: hFEN1 70 pM, substrate 100 nM, reaction time 20 minutes, 23° C.
Sequence (P39748 whole entry): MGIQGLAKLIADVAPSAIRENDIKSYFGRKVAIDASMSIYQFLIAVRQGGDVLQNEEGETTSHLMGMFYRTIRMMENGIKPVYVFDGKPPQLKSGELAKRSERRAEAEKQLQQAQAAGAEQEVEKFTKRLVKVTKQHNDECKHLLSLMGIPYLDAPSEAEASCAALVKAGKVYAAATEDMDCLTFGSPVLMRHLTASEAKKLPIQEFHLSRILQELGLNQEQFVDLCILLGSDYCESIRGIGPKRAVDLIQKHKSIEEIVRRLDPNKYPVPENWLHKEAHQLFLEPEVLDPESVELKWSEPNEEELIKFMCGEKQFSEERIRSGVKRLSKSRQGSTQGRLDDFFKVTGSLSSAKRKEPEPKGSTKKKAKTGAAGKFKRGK
quantityName: IC50

| molecule | assayValue |
| --- | --- |
| CC(C)(C)OC(=O)Nc1ccc(Cn2c(=O)c(O)c(C(=O)O)c3sccc32)cc1 [Example 15] | < 200 nM |
| O=C(O)c1c(O)c(=O)n(Cc2cnn(Cc3cccnc3)c2)c2ccsc12 [Example 120] | < 200 nM |
| O=C(O)c1c(O)c(=O)n(Cc2cnn(Cc3ccnnc3)c2)c2ccsc12 [Example 132] | < 200 nM |
| O=C1CC(Cn2c(=O)c(O)c(C(=O)O)c3sccc32)CN1 (centres unmarked) [Example 76] | 250 to 750 nM |
| CS(=O)(=O)c1ccc(-n2cc(Cn3c(=O)c(O)c(C(=O)O)c4sccc43)cn2)cc1 [Example 116] | < 200 nM |
| CC(=O)Nc1ccc(Cn2c(=O)c(O)c(C(=O)O)c3sccc32)cc1 [Example 40] | < 200 nM |
| O=C(O)c1c(O)c(=O)n(Cc2cnn(Cc3cn4ccncc4n3)c2)c2ccsc12 [Example 125] | < 200 nM |
| O=C(O)c1c(O)c(=O)n(Cc2cccc(OC(F)(F)F)c2)c2ccsc12 [Example 55] | 750 to 2250 nM |
| CC(C)(C)OC(=O)N1CCCC(Cn2c(=O)c(O)c(C(=O)O)c3sccc32)C1 (centres unmarked) [Example 61] | 2250 to 10000 nM |
| Cn1nc(Cn2c(=O)c(O)c(C(=O)O)c3sccc32)c2ccccc21 [Example 51] | 2250 to 10000 nM |
| O=C(O)c1c(O)c(=O)n(Cc2cnn(Cc3cccc4nonc34)c2)c2ccsc12 [Example 140] | < 200 nM |
| O=C(O)c1c(O)c(=O)n(Cc2cnc[nH]2)c2ccsc12 [Example 75] | 750 to 2250 nM |
| CS(=O)(=O)COc1ccc(Cn2c(=O)c(O)c(C(=O)O)c3sccc32)cc1 [Example 153] | 250 to 750 nM |
| O=C(O)c1c(O)c(=O)n(Cc2nnc(-c3ccccc3)o2)c2ccsc12 [Example 85] | 250 to 750 nM |
| Cn1cc(Cn2cc(Cn3c(=O)c(O)c(C(=O)O)c4sccc43)cn2)cn1 [Example 143] | < 200 nM |
| O=C(O)c1c(O)c(=O)n(Cc2ccncc2)c2ccsc12 [Example 47] | 2250 to 10000 nM |
| O=C(O)c1c(O)c(=O)n(Cc2cnn(Cc3cn4cccnc4n3)c2)c2ccsc12 [Example 139] | < 200 nM |
| N#Cc1ccc(Cn2c(=O)c(O)c(C(=O)O)c3sccc32)cc1 [Example 48] | 2250 to 10000 nM |
| CC(=O)Nc1ccccc1Cn1c(=O)c(O)c(C(=O)O)c2sccc21 [Example 39] | 2250 to 10000 nM |
| NC(=O)Cn1cc(Cn2c(=O)c(O)c(C(=O)O)c3sccc32)cn1 [Example 136] | < 200 nM |
| CS(=O)(=O)c1ccc(-c2ncc(Cn3c(=O)c(O)c(C(=O)O)c4sccc43)s2)cc1 [Example 166] | 250 to 750 nM |
| O=C(O)c1c(O)c(=O)n(Cc2cnc(-c3cccc4ncccc34)s2)c2ccsc12 [Example 169] | 2250 to 10000 nM |
| O=C(O)c1c(O)c(=O)n(Cc2ccc3[nH]cnc3c2)c2ccsc12 [Example 99] | < 200 nM |
| N#Cc1ccc(Cn2cc(Cn3c(=O)c(O)c(C(=O)O)c4sccc43)cn2)c(C(F)(F)F)c1 [Example 146] | < 200 nM |
| CS(=O)(=O)Nc1ccc(-c2ncc(Cn3c(=O)c(O)c(C(=O)O)c4sccc43)s2)cc1 [Example 167] | < 200 nM |
| CS(=O)(=O)Nc1cccc(Cn2c(=O)c(O)c(C(=O)O)c3sccc32)c1 [Example 78] | 250 to 750 nM |
| O=C(O)c1c(O)c(=O)n(Cc2cccc3nonc23)c2ccsc12 [Example 72] | 2250 to 10000 nM |
| O=C(O)c1c(O)c(=O)n(Cc2cnn(Cc3ccccc3)c2)c2ccsc12 [Example 122] | < 200 nM |
| Nc1ccc(-n2cc(Cn3c(=O)c(O)c(C(=O)O)c4sccc43)cn2)cc1 [Example 118] | < 200 nM |
| O=C(O)c1c(O)c(=O)n(CC2CCCNC2)c2ccsc12 (centres unmarked) [Example 62] | 2250 to 10000 nM |
| N#Cc1cccc(Cn2cc(Cn3c(=O)c(O)c(C(=O)O)c4sccc43)cn2)c1 [Example 128] | < 200 nM |
| O=C(O)c1c(O)c(=O)n(Cc2cn(-c3ccc4c(c3)OCO4)nn2)c2ccsc12 [Example 148] | < 200 nM |
| O=C(O)c1c(O)c(=O)n(Cc2ccc(OC(F)(F)F)cc2)c2ccsc12 [Example 56] | 2250 to 10000 nM |
| Cc1nn(C)cc1Cn1cc(Cn2c(=O)c(O)c(C(=O)O)c3sccc32)cn1 [Example 134] | < 200 nM |
| Cc1cc(Cn2c(=O)c(O)c(C(=O)O)c3sccc32)on1 [Example 83] | 250 to 750 nM |
